Tested on: Wolbachia pipientis
assay info: Anti-Wolbachia Cell-Based Screen
Format: functional
Design: scale not given: in the data most compounds retested in dose-response had high values
condition details: 5 µM
The campaign covered roughly 48,000 compounds. About 13,000 (27%) showed an effect of 50% or more. Some of the results follow.
endpoint label: Percent Effect (%)
Give just the number in %; leave the unit off.

{"compound": "Cc1cccc(C)c1OCCNC(=O)C[S+]([O-])C1CCCC1 (configuration not stated)", "Percent Effect / %": 0.9364}

Item under review: CNC(=O)CN1CCCC1c1ccccc1Br (configuration not stated) . Reported Percent Effect?
2.059

Item under review: CN1CC(C(=O)N2CCC(Oc3ccccc3Cl)CC2)CC1=O (configuration not stated) . Reported Percent Effect?
1.662

Item under review: Cc1ccc(C2=CCN(C(=O)C3CCN(C)C(=O)C3)CC2)cc1 (configuration not stated) . Reported Percent Effect?
92.67

Item under review: CC(c1nccs1)n1cc(-c2cc(CN3CCCCC3)cs2)nn1 (configuration not stated) . Reported Percent Effect?
17.2

Item under review: COc1ccc(C2=CCN(C(=O)C3CCN(C)C(=O)C3)CC2)cc1 (configuration not stated) . Reported Percent Effect?
-8.99

Item under review: Cc1nccn1CCC1CCCCN1Cc1cccc(CCN)c1 (configuration not stated) . Reported Percent Effect?
-7.51

Item under review: `CCn1cc(N2Cc3nc(N)ncc3C2=O)cn1` . Reported Percent Effect?
3.471

Item under review: CCOc1ccccc1C1=CCN(C(=O)C2CCN(C)C(=O)C2)CC1 (configuration not stated) . Reported Percent Effect?
103.5

Reference source: ChEMBL document CHEMBL3988442
